- test_system: CCR5 (Homo sapiens, UniProt P51681)
- Sequence (P51681 whole entry): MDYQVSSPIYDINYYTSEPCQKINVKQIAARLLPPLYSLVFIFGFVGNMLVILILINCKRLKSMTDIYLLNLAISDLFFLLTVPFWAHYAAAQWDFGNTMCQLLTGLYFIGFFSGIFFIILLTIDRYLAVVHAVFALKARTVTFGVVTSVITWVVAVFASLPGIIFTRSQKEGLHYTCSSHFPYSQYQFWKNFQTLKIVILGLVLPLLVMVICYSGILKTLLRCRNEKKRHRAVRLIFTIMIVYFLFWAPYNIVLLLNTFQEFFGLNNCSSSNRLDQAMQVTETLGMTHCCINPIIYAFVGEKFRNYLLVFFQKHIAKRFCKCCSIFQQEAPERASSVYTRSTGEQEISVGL
- assay_explanation: biochemical
Where a SMILES comes first, the peptide text is derived from it.
For each entry below, report its EC50 value.
Entry rule: numbers only, all in pM.

Task item: // lookup EC50 | system=CCR5 (Homo sapiens, UniProt P51681) | key= N=C(N)NCCC[C@H](NC(=O)[C@H](Cc1ccc(O)cc1)NC(=O)[C@H](CCC(=O)O)NC(=O)[C@H](CO)NC(=O)[C@@H](N)CO)C(=O)O [SSEYR] (H-SSEYR-OH)
Reply: 300

Task item: Item C[C@@H](O)[C@H](N)C(=O)N[C@H](C(=O)N[C@@H](CO)C(=O)N[C@@H](Cc1ccc(O)cc1)C(=O)N[C@@H](CCCNC(=N)N)C(=O)O)[C@@H](C)O [TTSYR] (H-TTSYR-OH) with CCR5 (Homo sapiens, UniProt P51681) - EC50?
Reply: 100

Task item: Could you share what EC50 was measured for C[C@@H](O)[C@H](N)C(=O)N[C@@H](CO)C(=O)N[C@@H](CC(N)=O)C(=O)N[C@@H](Cc1ccc(O)cc1)C(=O)N[C@@H](CO)C(=O)O [TSNYS] (H-TSNYS-OH) , tested on CCR5 (Homo sapiens, UniProt P51681)?
Reply: 200

Task item: What EC50 appears in the records for this compound with CCR5 (Homo sapiens, UniProt P51681)? C[C@@H](O)[C@H](N)C(=O)N[C@H](C(=O)N[C@@H](CO)C(=O)N[C@@H](Cc1ccc(O)cc1)C(=O)N[C@H](C(=O)O)[C@@H](C)O)[C@@H](C)O [TTSYT] (H-TTSYT-OH)
Reply: 50

Task item: Form field: EC50 recorded for N=C(N)NCCC[C@H](NC(=O)[C@H](Cc1ccc(O)cc1)NC(=O)[C@H](CCCNC(=N)N)NC(=O)[C@H](CC(N)=O)NC(=O)[C@@H](N)CC(N)=O)C(=O)O [NNRYR] (H-NNRYR-OH) with CCR5 (Homo sapiens, UniProt P51681) (enter value)
Reply: 200

Task item: Entry C[C@@H](O)[C@H](NC(=O)[C@@H](N)CC(N)=O)C(=O)N[C@@H](CO)C(=O)N[C@@H](Cc1ccc(O)cc1)C(=O)N[C@@H](CCCNC(=N)N)C(=O)O [NTSYR] (H-NTSYR-OH) , system CCR5 (Homo sapiens, UniProt P51681): what EC50 was measured?
Reply: 100

Task item: # returns recorded EC50 (system: CCR5 (Homo sapiens, UniProt P51681)) for N=C(N)NCCC[C@H](NC(=O)[C@H](Cc1ccc(O)cc1)NC(=O)[C@H](CO)NC(=O)[C@H](CO)NC(=O)[C@@H](N)CC(N)=O)C(=O)O [NSSYR] (H-NSSYR-OH)
Reply: 40
